Data provenance: ChEMBL document CHEMBL1139717

target or system: Bifunctional epoxide hydrolase 2 (Homo sapiens)
assay method text: Inhibition of human recombinant soluble epoxide hydrolase at 100 nM by end-point fluorescent assay
Listed here: items and their measured inhibition.
Dear colleague, please return just the value in %, with no unit written.

O=C(Nc1ccc(I)cc1)N[C@H]1CC[C@@H](Oc2ccc(F)cc2)CC1 : 76
O=C(Nc1ccc(Cl)cc1)N[C@H]1CC[C@@H](Oc2ccc(F)cc2)CC1 : 81
O=C(Nc1ccc(C(F)(F)F)cc1)N[C@H]1CC[C@@H](Oc2ccc(F)cc2)CC1 : 82
C[C@@H](NC(=O)NC12CC3CC(CC(C3)C1)C2)c1ccccc1 : 10

Now take the following molecule into account.
Looking up "CN(C)c1cccc2c(S(=O)(=O)NCCNC(=O)NC34CC5CC(CC(C5)C3)C4)cccc12" , I found its inhibition recorded as 19
